Origin of the recorded values: PubChem BioAssay (NCI)

Tested on: U251 CNS
Labels: t (active), f (inactive)

INSERT INTO measurements (compound, discrete_label) VALUES
  ('CCOC(=O)c1c(C(F)(F)F)n([O-])c2ccc(Cl)cc2[n+]1=O', 'f'),
  ('CCCCCCCCCCCCNC(=O)[C@H]1CSC(c2cc(Br)cs2)N1 (stereo not given in full)', 'f'),
  ('Cc1ccc(NC(C(=O)c2ccccc2)c2ccccc2)cc1 (stereo not given)', 'f'),
  ('O=C(CCCCCNC1=CC(=O)c2ccccc2C1=O)NCCC[Te]c1ccccc1', 't'),
  ('Cc1ccc2c(n1)C(=O)C(Cl)=C(Nc1ccc(N3CCN(C)CC3)cc1)C2=O', 'f'),
  ('Cc1cc(Br)c2nsnc2c1[N+](=O)[O-]', 'f'),
  ('O=C1/C(=C\c2ccc([N+](=O)[O-])cc2)CS(=O)(=O)C/C1=C/c1ccc([N+](=O)[O-])cc1', 't'),
  ('COc1ccc(-c2nnc(Nc3nc(O)c(C4=c5cc(OC(F)(F)F)ccc5=NC4=O)s3)o2)cc1', 'f'),
  ('Nc1ncnc2c1nc(N)n2C1OC(CO)C(O)C1O (stereo not given)', 'f'),
  ('O=C(N/N=C/c1ccncc1)c1ccc(C(F)(F)F)nc1Nc1cccc(C(F)(F)F)c1', 'f');

----------
System: EKVX NSCLC
Measurement notes: NCI tumour cell line growth inhibition, 48 h
Property label: TGI

INSERT INTO assay_data (compound, property_label, meas_value) VALUES
  ('Cc1ccc(S(=O)(=O)C(C#N)c2nc3ccccc3nc2N2CCOCC2)cc1 (stereo not drawn)', 'TGI', '> 100 µM'),
  ('O=C1NC(=O)C(N2CCc3ccccc32)=C1c1ccc(Cl)cc1', 'TGI', '> 25 µM'),
  ('CCSC1=C(C#N)C2(CCCCC2)C2=C(CC(C)(C)CC2=O)N1', 'TGI', '68.4 µM'),
  ('O=NNc1ccc(Sc2ccc3ccccc3c2)cn1', 'TGI', '> 100 µM'),
  ('O=S(=O)(c1ccccc1)[C@@H]1[C@H]2C=C[C@](CS)(O2)[C@H]1S(=O)(=O)c1ccccc1', 'TGI', '> 100 µM'),
  ('CN=c1ss/c(=N\C(=S)N(C)C)n1C1CCCCC1', 'TGI', '> 31.6 µM'),
  ('CS(=O)/C(C#N)=C\C=C\c1cccc(Cl)c1 (stereo not drawn)', 'TGI', '16.7 µM'),
  ('S=C(Nc1ccc(Cl)cc1)SC1CCCCC1', 'TGI', '47 µM'),
  ('Cc1ccc(O)c(-c2cc(-c3ccccc3)nc(/N=C\c3ccccc3)n2)c1', 'TGI', '> 100 µM'),
  ('Cc1ccc(S(=O)(=O)Nc2cccc(C)c2C)cc1', 'TGI', '> 100 µM'),
  ('CC1=C(C(=O)Nc2cccc(C(F)(F)F)c2)C(c2ccccc2F)C(C(=O)Nc2cccc(C(F)(F)F)c2)=C(C)N1', 'TGI', '17.5 µM'),
  ('N#CC12CC=C(c3ccccc3)N=C1NC(c1ccccc1)=CC2 (stereo not drawn)', 'TGI', '> 100 µM'),
  ('O=C(O)CN(CC(=O)O)c1ccccc1', 'TGI', '> 100 µM'),
  ('O=c1c2cc(Br)ccc2[nH]c(=S)n1-c1ccccc1', 'TGI', '> 100 µM'),
  ('CCOC(=O)C1=C(C)NC(C)=C(C(=O)OCC)C1c1cc(Br)c(O)c(OC)c1', 'TGI', '34.4 µM'),
  ('c1ccc(CNCCCNCCCCNCCCNCc2ccccc2)cc1', 'TGI', '23.1 µM'),
  ('COc1cc(-c2ccccc2)c(OC)cc1CCl', 'TGI', '> 100 µM'),
  ('COC(=O)CSc1n[nH]c(-c2ccccc2)n1', 'TGI', '> 100 µM'),
  ('Cc1ccc(NC(=O)CC(=O)n2nc(-c3ccccc3)c(N=Nc3ccccc3C(=O)O)c2-c2ccccc2)cc1', 'TGI', '> 100 µM'),
  ('CCNC(=S)Nc1c(C#N)c2n(c1C(=O)OCC)CCCCC2', 'TGI', '> 100 µM'),
  ('[CH3][Sn]([CH3])([CH3])[O]C(=O)C(O)c1ccccc1 (stereo not drawn)', 'TGI', '55.7 µM'),
  ('N#Cc1ccc(N2Cc3cc(Cl)ccc3OC3=C2C(=O)N(Cc2ccc(F)cc2)C3=O)cc1', 'TGI', '4.24 µM'),
  ('Nc1ncnc2c1nc(N)n2C1OC(CO)C(O)C1O (stereo not drawn)', 'TGI', '1.27 µM'),
  ('CCOC(=O)C(Cc1ccc2c(c1)CCC2)Cc1ccc2c(c1)CCC2', 'TGI', '> 100 µM'),
  ('Cc1ccccc1C(=O)NC(O)(C(F)(F)F)C(F)(F)F', 'TGI', '> 100 µM'),
  ('CCn1c(SCC(=O)NNC(=S)Nc2ccc(Cl)cc2)nc2ccccc2c1=O', 'TGI', '> 100 µM'),
  ('CCCCCCCCn1ccc2cc(NC(=O)Cn3cc(CN4CCC(C)CC4)nn3)ccc21', 'TGI', '3.66 µM'),
  ('Cc1cc(N2CCN(C)CC2)nc(N(CCNc2ccnc3cc(Cl)ccc23)Cc2ccco2)n1', 'TGI', '19.7 µM'),
  ('NC(Cc1ccc(O)cc1)C(=O)N/N=C/c1ccc(N(CCCl)CCCl)cc1 (stereo not drawn)', 'TGI', '> 100 µM'),
  ('Cc1ccc(C)c(NC(=O)/C(=N\N)C(c2cnc3ccc([N+](=O)[O-])cc3n2)[N+](=O)[O-])c1 (stereo not drawn)', 'TGI', '> 100 µM'),
  ('CCOC(=O)c1c(SC)nc(-c2ccc(Cl)cc2)sc1=N', 'TGI', '55.2 µM'),
  ('CC(=O)[C@H]1[C@@H](OCc2ccccc2)O[N+]([O-])=C(C)[C@@H]1c1ccccc1', 'TGI', '> 100 µM'),
  ('CCCCCCCCCCCCNC(=O)[C@H]1CSC(c2cc(Br)cs2)N1 (stereo partly drawn)', 'TGI', '1.77 µM'),
  ('c1csc(-c2sc(-c3ccsc3)cc2Cc2ccsc2)c1', 'TGI', '> 10 µM'),
  ('O=S1c2ccccc2N=C(c2ccc3ccccc3c2)CC1c1ccccc1F (stereo not drawn)', 'TGI', '> 100 µM'),
  ('Cc1cc2oc(=O)c(Cl)c(Cl)c2c(C)c1Cl', 'TGI', '34.5 µM'),
  ('C=C1C(=O)O[C@H]2[C@H]1CC/C(COC(=O)c1cccc3ccccc13)=C\CC[C@@]1(C)O[C@@H]21', 'TGI', '3.94 µM'),
  ('COC(=O)[C@H]1CC(=O)C=C2CCCC21 (stereo partly drawn)', 'TGI', '> 100 µM');

----------
System: SK-MEL-28 melanoma
Measurement notes: NCI tumour cell line growth inhibition, 48 h
TGI values by entry
Property label: TGI

INSERT INTO measurements (molecule, property_label, meas_value) VALUES
  ('COc1ccc2c(c1)CC[C@@H]1C2CC[C@]2(C)C(=O)N(CCN3CCCCC3)C(=O)CC12 (some centres not stated)', 'TGI', '> 100 µM'),
  ('CC(=O)Nc1c(I)c(C(=O)O)c(I)c(N(C)C(C)=O)c1I', 'TGI', '> 100 µM'),
  ('NS(=O)(=O)c1ccc(N=Nc2ccc(O)c(O)c2)cc1', 'TGI', '37.2 µM'),
  ('N#Cc1nc(-c2ccccc2O)oc1N', 'TGI', '> 100 µM'),
  ('O=C(O)c1cccc(S(=O)(=O)NN2C(=O)CSC2c2ccccc2Cl)c1 (configuration not stated)', 'TGI', '> 100 µM'),
  ('COC(=O)CCN1CCN(CCO)CC1C (configuration not stated)', 'TGI', '> 10 µM'),
  ('O=C1CC(NC2CC(=O)c3c(Br)sc(Br)c32)c2c(Br)sc(Br)c21 (configuration not stated)', 'TGI', '> 55.4 µM'),
  ('O=Cc1c[nH]c2ccc(-c3csc4ccccc34)cc12', 'TGI', '> 100 µM'),
  ('Cc1ccc(C)c(NC(=O)/C(=N\N)C(c2cnc3ccc([N+](=O)[O-])cc3n2)[N+](=O)[O-])c1 (configuration not stated)', 'TGI', '> 100 µM'),
  ('CC(C)(C)c1cc(Oc2ccc(C#N)c(C#N)c2)cc(C(C)(C)C)c1', 'TGI', '> 100 µM'),
  ('CC(=O)n1cc(CC(C)O)c(=O)[nH]c1=O (configuration not stated)', 'TGI', '> 100 µM'),
  ('Nc1cccc2c1CN(C1CCC(=O)NC1=O)C2=O (configuration not stated)', 'TGI', '> 100 µM'),
  ('O=CNNC(=O)CSc1nc2ccc(I)cc2c(=O)n1Cc1ccccc1', 'TGI', '> 100 µM'),
  ('COC(=O)CSc1n[nH]c(-c2ccccc2)n1', 'TGI', '> 100 µM'),
  ('CC(=O)c1c2c(cc3c1CC1(C3)Cc3ccc4c(c3C1=O)CCC4)CCC2 (configuration not stated)', 'TGI', '> 100 µM'),
  ('CCc1cccc(C(C)C)c1NC1=C([n+]2ccc(C)cc2)C(=O)c2ccccc2C1=O', 'TGI', '20.8 µM'),
  ('CC[C@@]1(OC(=O)C(N)CCC(=O)O)C(=O)OCc2c1cc1n(c2=O)Cc2cc3ccccc3nc2-1 (some centres not stated)', 'TGI', '51.8 µM'),
  ('O=C(Nc1ccc(Cl)cc1Cl)c1cc2nc3ccccc3c(=O)n2c2ccccc12', 'TGI', '> 10 µM'),
  ('Cc1ccc(S(=O)(=O)N/N=C2/C3C(CC2(C)C)C2(C)CCCC3(C)C2O)cc1 (configuration not stated)', 'TGI', '40.4 µM'),
  ('C=C(C)C1Cc2c(cc(OC)c3c(=O)c4ccccc4n(C)c23)O1 (configuration not stated)', 'TGI', '> 100 µM'),
  ('OC1=CN=C(C2CC2)Oc2ccccc21', 'TGI', '> 100 µM'),
  ('COc1ccc(C2c3cc4c(c(OC)c3CC3OCC(=O)C32)OCO4)cc1OC (configuration not stated)', 'TGI', '> 100 µM'),
  ('CC1(C)C(=O)CCC(=O)C(C)(C)C2=CC=C(O2)C(C)(C)C(=O)CCC(=O)C(C)(C)C2=CC=C1O2', 'TGI', '> 100 µM'),
  ('Nc1ncnc2c1ccn2CC=C(CO)CO', 'TGI', '> 100 µM'),
  ('O=C(Nc1ccccc1)c1cc2c(cc1Cl)SC(NNCCO)=NS2(=O)=O', 'TGI', '> 100 µM'),
  ('C=C1C(=O)O[C@H]2[C@H]1CC/C(COC(=O)c1cccc3ccccc13)=C\CC[C@@]1(C)O[C@@H]21', 'TGI', '3.64 µM'),
  ('O=[N+]([O-])c1ccc(/C=N/n2c(CCc3n[nH]c(=S)n3/N=C/c3ccc([N+](=O)[O-])o3)n[nH]c2=S)o1', 'TGI', '31.5 µM');
